Experiment: Selectivity ratio of IC50 for MMP12 (unknown origin) to IC50 for ADAMTS7 (unknown origin)
readout kind: Ratio IC50

INSERT INTO measurements (compound, measurement) VALUES
  ('O=C1NC(=O)[C@](CNC(=O)c2ccccc2-c2ccc(C(F)(F)F)cc2)(C2CC2)N1', 11);

a = Cn1nc(-c2ccccc2)cc1C1(CNC(=O)c2ccc(F)c(F)c2-c2ccc(C(F)(F)F)cc2)NC(=O)NC1=O (centres undefined)
b = Cc1scnc1C1(CNC(=O)c2ccccc2-c2ccc(C(F)(F)F)cc2)NC(=O)NC1=O (centres undefined)
Data request: Please indicate which item has the smaller measured Ratio IC50: a versus b Could you answer with the label of the item you picked?
Data returned: b
(b: 188, a: 1450)
